Molecular target: Glutamate NMDA receptor
Test: Displacement of [3H]glycine from Gly/NMDA receptor in rat cortical synaptic membrane
pKi: −log10 of the molar value.
Quantity Kind: pKi

O=Cc1ccn(-c2cc3c(=O)n(O)c(=O)[nH]c3cc2Cl)c1 : 4.64
O=C1CCC(=O)N1c1cc2c(=O)n(O)c(=O)[nH]c2cc1Cl : 4.06
O=C1C=CCN1c1cc2c(=O)n(O)c(=O)[nH]c2cc1Cl : 4.38
O=c1ccn(-c2cc3c(=O)n(O)c(=O)[nH]c3cc2Cl)cc1 : 4.60

(a) O=c1[nH]c2cc(Cl)ccc2c(=O)n1O
(b) O=c1[nH]c2cc(Cl)c(-n3cccc3)cc2c(=O)n1O
(c) O=C(O)COn1c(=O)[nH]c2cc(Cl)ccc2c1=O
Given 3 compounds, produce a descending ranking by pKi. Form entry: labels listed in requested order.
a, b, c
(a: 6.62, b: 6.00, c: 4.05)

----------
Species on record: Rattus norvegicus
Test: Displacement of [3H]KA from high affinity KA receptor in rat cortical membrane at 100 uM
Format: cell membranes
Quantity Kind: inhibition (%)

Study these solved cases before continuing.
COC(=O)c1ccc(C(=O)Nc2cc3c(=O)n(O)c(=O)[nH]c3cc2Cl)cc1 : 28
COC(=O)c1cccc(C(=O)Nc2cc3c(=O)n(O)c(=O)[nH]c3cc2Cl)c1 : 20
CCOC(=O)COn1c(=O)[nH]c2cc(Cl)ccc2c1=O : 5

(a) O=C(NCc1ccccc1)Nc1cc2c(=O)n(O)c(=O)[nH]c2cc1Cl
(b) O=C(O)COn1c(=O)[nH]c2cc(Cl)ccc2c1=O
Which has the smaller recorded inhibition, a or b ? In your reply, give the label of the chosen option.
b
(b: 5%, a: 32%)

(a) O=C1CCC(=O)N1c1cc2c(=O)n(O)c(=O)[nH]c2cc1Cl
(b) O=C(O)C(CCO)On1c(=O)[nH]c2cc(Cl)ccc2c1=O (racemic)
Just curious, which one has the larger inhibition reading, a or b ? In your reply, give the label of the chosen option.
a

----------
Molecular target: Glutamate receptor ionotropic, AMPA (Rattus norvegicus, UniProt P19490+P19491+P19492+P19493)
Assay: Displacement of [3H]AMPA from AMPA receptor in rat cortical synaptic membrane
Quantity Kind: Ki (µM)

(a) N[C@@H](Cn1ccc(=O)n(Cc2ccccc2C(=O)O)c1=O)C(=O)O
(b) O=Cc1ccn(-c2cc3c(=O)n(O)c(=O)[nH]c3cc2Cl)c1
Just curious, which one has the larger Ki reading, a or b ? In your reply, give the label of the chosen option.
a
(a: 117 µM, b: 4.2 µM)

----------
Target: Glutamate NMDA receptor (Rattus norvegicus) (UniProt P35439+Q00959+Q00960+Q00961+Q62645+Q8VHN2+Q9R1M7)
Assay: Displacement of [3H]glycine from Gly/NMDA receptor in rat cortical synaptic membrane at 100 uM
Type: cell membranes
Quantity Kind: inhibition (%)

O=c1[nH]c2cc(Cl)c(-n3cnnc3)cc2c(=O)n1O : 47
O=C(O)c1ccccc1C(=O)Nc1cc2c(=O)n(O)c(=O)[nH]c2cc1Cl : 40
O=C(O)c1cccc(C(=O)Nc2cc3c(=O)n(O)c(=O)[nH]c3cc2Cl)c1 : 32
O=C(O)c1ccc(C(=O)Nc2cc3c(=O)n(O)c(=O)[nH]c3cc2Cl)cc1 : 40
O=C(Nc1cc2c(=O)n(O)c(=O)[nH]c2cc1Cl)c1ccccc1 : 33
COC(=O)c1cccc(C(=O)Nc2cc3c(=O)n(O)c(=O)[nH]c3cc2Cl)c1 : 32

----------
Target: Glutamate receptor ionotropic, AMPA (Rattus norvegicus, UniProt P19490+P19491+P19492+P19493)
Assay: Displacement of [3H]AMPA from AMPA receptor in rat cortical synaptic membrane
Quantity Kind: Ki (µM)

Study these solved cases before continuing.
CN1CCc2c(-c3ccc(S(=O)(=O)N(C)C)cc3)cc3c(c2C1)NC(=O)/C3=N\OC(CCO)C(=O)O (stereo unspecified) : 0.043
O=C(O)COn1c(=O)[nH]c2cc(Cl)ccc2c1=O : 99
O=C1CCC(=O)N1c1cc2c(=O)n(O)c(=O)[nH]c2cc1Cl : 36
O=C(Nc1cc2c(=O)n(O)c(=O)[nH]c2cc1Cl)c1ccccc1 : 45
O=C1C=CCN1c1cc2c(=O)n(O)c(=O)[nH]c2cc1Cl : 6.2

(A) O=C(O)c1cccc(C(=O)Nc2cc3c(=O)n(O)c(=O)[nH]c3cc2Cl)c1
(B) O=C(O)CCC(=O)Nc1cc2c(=O)n(O)c(=O)[nH]c2cc1Cl
Which has the smaller recorded Ki, A or B ? In your reply, give the label of the chosen option.
B
(B: 8.4 µM, A: 60 µM)

(I) O=C(O)c1ccn(-c2cc3c(=O)n(O)c(=O)[nH]c3cc2Cl)c1
(II) O=c1[nH]c2cc(Cl)c(-n3cccc3)cc2c(=O)n1O
Which has the smaller recorded Ki, I or II ? In your reply, give the label of the chosen option.
I
